Below, each entry is listed alongside its reported pIC50.
- Test system: Aβ42
- assay_summary: Screening for γ-secretase-modulating activity in SKNBE2 cells carrying APP 695 wild type: Aβ42 in cell supernatant (Alphalisa)
- Format: cell-based
- reported_conditions: Homo sapiens, SKNBE2, SKNBE2 cells carrying APP 695 wild type, overnight incubation
pIC50: −log10 of the molar value.

{"molecule": "COc1cc(Nc2nc3c(-c4ccc(F)cc4C)cccn3n2)ccc1-n1cnc(C)c1", "pIC50": 8.40}
{"molecule": "COc1cc(Nc2nc3n(n2)CCCC3c2ccccc2Cl)ccc1-c1ccnc(C)c1 (centres unmarked) [Compound 77]", "pIC50": 7.40}
{"molecule": "COc1cc(Nc2nc3n(n2)CCCC3c2ccccc2F)ccc1-c1ccnc(C)c1 (centres unmarked)", "pIC50": 7.30}
{"molecule": "Cc1cc(-c2ccc(Nc3nc4n(n3)CCOC4c3ccccc3C(F)(F)F)cc2)ccn1 (centres unmarked)", "pIC50": 7.36}
{"molecule": "COc1cc(Nc2nc3c(-c4ccc(F)cc4C)nccn3n2)ccc1-n1cnc(C)c1", "pIC50": 8.05}
{"molecule": "COc1cc(Nc2nc3n(n2)CCCC3c2ccccc2Cl)ccc1-c1ccnc(C)c1 (racemic) [Compound 66]", "pIC50": 7.46}
{"molecule": "COc1cc(Nc2nc3n(n2)CCN(C(C)=O)C3c2ccccc2C(F)(F)F)ccc1-n1cnc(C)c1 (centres unmarked)", "pIC50": 7.18}
{"molecule": "COc1cc(Nc2nc3n(n2)CCCC3c2ccccc2C(F)(F)F)ccc1-n1cnc(C)n1 (centres unmarked)", "pIC50": 7.10}
